- target or test system: human muscarinic M4 receptor (Homo sapiens, UniProt P08173)
- Construct: expressed in transfected cells
- Sequence (P08173 whole entry): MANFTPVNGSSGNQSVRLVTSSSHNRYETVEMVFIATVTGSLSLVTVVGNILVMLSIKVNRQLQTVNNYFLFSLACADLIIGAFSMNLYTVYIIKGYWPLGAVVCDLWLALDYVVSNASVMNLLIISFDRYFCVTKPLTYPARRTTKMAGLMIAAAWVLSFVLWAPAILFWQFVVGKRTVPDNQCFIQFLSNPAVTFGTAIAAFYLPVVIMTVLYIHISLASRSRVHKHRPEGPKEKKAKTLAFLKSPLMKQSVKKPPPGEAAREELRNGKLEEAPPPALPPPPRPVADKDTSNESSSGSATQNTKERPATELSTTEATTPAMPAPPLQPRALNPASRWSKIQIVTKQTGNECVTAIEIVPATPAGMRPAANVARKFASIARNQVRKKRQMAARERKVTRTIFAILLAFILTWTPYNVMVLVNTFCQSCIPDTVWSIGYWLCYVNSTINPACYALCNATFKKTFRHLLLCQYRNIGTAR
- assay details: Alphascreen Surefire phospho-ERK1/2 functional assay, M4
- Type: cell-based
- run conditions: CHO cells stably expressing human M4; phospho-ERK1/2; read-out: pEC50 M4 (converted)
property name: EC50 (µM)
Answers are plain numbers, in µM.

For orientation, consider the following solved cases.
{"molecule": "CCCN1C(=O)OC2(CCN(C3CC4(CCN(C(=O)OCC)C4)C3)CC2)C1CC (single isomer, unassigned) [4-23 Isomer 3]", "property name": "EC50", "observed result": 0.0501}
{"molecule": "CCOC(=O)N1CCC2(CC(N3CCC4(CC3)CN(CC(C)C)C(=O)O4)C2)C1 (single isomer, unassigned) [4-9 Isomer 2]", "property name": "EC50", "observed result": 0.631}

Shift focus to the following entry.
Recorded result, CCOC(=O)N1CCC2(CC(N3CCC4(CC3)CC(=O)NN4CC)C2)C1 (single isomer, unassigned) [6-2 Isomer 2] , EC50: 0.02
